Measured values drawn from patent US4210638A for this set.

Test: Cytotoxicity vs HEp-2 cells (colony formation, % survival)
Conditions: human, hep-2 cells, % S of HEp-2 cells, 0.06 mM, +H4 U 500 μg/ml
Recorded endpoint: viability at 48 h, 60 µM (%)

INSERT INTO assay_data (structure_string, obs_value) VALUES
  ('Nc1nc(=O)n([C@H]2C[C@H](O)[C@@H](CO)O2)cc1C(F)(F)F', 9);

----------
Experiment: Cytotoxicity vs HEp-2 cells (colony formation, % survival)
Details: human, hep-2 cells, % Survival, 0.003 mM, +H4 U 100 μg/ml (experiment 1 and 2)
Recorded endpoint: viability at 48 h, 3 µM (%)

INSERT INTO assay_data (compound, obs_value) VALUES
  ('Nc1nc(=O)n([C@H]2C[C@H](O)[C@@H](CO)O2)cc1C(F)(F)F [F3 methyl dC, 5-trifluoromethyl-2''-deoxycytidine]', 100);
